- Tested on: GFPuv (Aequorea victoria, UniProt P42212, 15N-labeled)

Binder	binding result
LaG-26 (VHH) VHH: QVQLVESGGGLVQAGASMRLSCAASGITFSLYHWVWFRQAAGREHEFVAGIIRSGGETLSADSVKDRFIISRDDAKNTLYLQMNMLQPEDTATYYCAATHRADWYSSAFREYIFRGQGTQVTVS	binds
LaG-17 (VHH) VHH: DVQLVESGGGLVQAGGSLRLSCAASGRTISMAAMSWFRQAPGKEREFVAGISRSAGSAVHADSVKGRFTISRDNTKNTLYLQMNSLKAEDTAVYYCAVRTSGFFGSIPRTGTAFDYWGQGTQVTVS	binds
LaG-41 (VHH) VHH: DVQLVESGGGLVQAGGSLRLSCAASGPTGAMAWFRQAPGKEREFVGGISGSETDTYYVDSVKGRFTVDRDNVKNTVYLQMNSLKPEDTAVYYCAARRRITLFTSRTDYDFWGRGTQVTV	binds

Cited source: paper PMC4272012
